Some compounds, each annotated with its measured MIC.
# Tested on: Staphylococcus aureus ATCC 25923
# assay-text: ≥ marks a high value that may be exact or a test limit, other limits are often not marked, values filed in µg/mL are converted to µM
Just the number please, in µM, no unit attached.

[
  {
    "compound-structure": "CSCC[C@H](NC(=O)[C@H](CCCN=C(N)N)NC(=O)[C@H](Cc1c[nH]c2ccccc12)NC(=O)[C@H](CCC(N)=O)NC(=O)[C@H](Cc1c[nH]c2ccccc12)NC(=O)[C@H](CCCN=C(N)N)NC(=O)[C@H](CCCN=C(N)N)NC(=O)[C@H](C)NC(=O)[C@H](CCCCN)NC(=O)[C@@H](N)Cc1ccccc1)C(=O)N[C@@H](CCCCN)C(=O)N[C@@H](CCCCN)C(=O)N[C@@H](CC(C)C)C(=O)NCC(=O)N[C@@H](C)C(=O)O",
    "unit-symbol": "µM",
    "MIC": 48
  }
]

GET /value?item= "CC[C@H](C)[C@H](NC(=O)[C@H](CCCN=C(N)N)NC(=O)[C@H](CCCCN)NC(=O)[C@H](CC(C)C)NC(=O)[C@H](CC(C)C)NC(=O)[C@@H](N)CCCCN)C(=O)N[C@@H](CCCCN)C(=O)N[C@@H](CCCCN)C(=O)N[C@@H](CC(C)C)C(=O)N[C@@H](CC(C)C)C(N)=O" &field=MIC returns 22.4

----------
# Tested on: Bacillus subtilis ATCC 23857
measurement-name: MIC (µM)
Just the number please, in µM, no unit attached.

The molecule "NCC(=O)N[C@@H](CCCN=C(N)N)C(=O)N[C@@H](CCCN=C(N)N)C(=O)N[C@@H](Cc1c[nH]c2ccccc12)C(=O)N[C@@H](Cc1c[nH]c2ccccc12)C(=O)N[C@@H](Cc1c[nH]c2ccccc12)C(=O)N[C@@H](CCCN=C(N)N)C(=O)N[C@@H](CCCN=C(N)N)C(=O)NCC(N)=O" , tested on Bacillus subtilis ATCC 23857, showed MIC of 4

----------
Notes on MIC obtained with Staphylococcus aureus ATCC 25923.
Just the number please, in µM, no unit attached.

[
  {
    "compound-structure": "NC(=O)[C@H](CCCN=C(N)N)NC(=O)[C@H](CCCN=C(N)N)NC(=O)[C@H](Cc1c[nH]c2ccccc12)NC(=O)[C@@H]1CCCN1C(=O)[C@H](Cc1c[nH]c2ccccc12)NC(=O)[C@H](Cc1c[nH]c2ccccc12)NC(=O)[C@@H]1CCCN1C(=O)[C@H](Cc1c[nH]c2ccccc12)NC(=O)[C@H](CCCN=C(N)N)NC(=O)[C@H](Cc1c[nH]c2ccccc12)NC(=O)[C@@H]1CCCN1C(=O)[C@H](CCCN=C(N)N)NC(=O)[C@@H](N)CCCN=C(N)N",
    "system-under-test": "Staphylococcus aureus ATCC 25923",
    "endpoint-result": 15.5
  }
]

Now for the molecule whose MIC we want.
The molecule "NCCCC[C@H](NC(=O)[C@H](Cc1c[nH]c2ccccc12)NC(=O)[C@H](Cc1c[nH]c2ccccc12)NC(=O)[C@H](CCCN=C(N)N)NC(=O)[C@@H](N)CCCN=C(N)N)C(=O)N[C@@H](Cc1c[nH]c2ccccc12)C(=O)N[C@@H](Cc1c[nH]c2ccccc12)C(=O)N[C@@H](Cc1c[nH]c2ccccc12)C(=O)N[C@@H](CCCN=C(N)N)C(=O)O" , tested on Staphylococcus aureus ATCC 25923, showed MIC of 0.7

----------
Some compounds, each annotated with its measured MIC.
# Test system: Pseudomonas aeruginosa ATCC 27853
# assay-text: ≥ marks a high value that may be exact or a test limit, other limits are often not marked, values filed in µg/mL are converted to µM
Just the number please, in µM, no unit attached.

[
  {
    "compound": "CC[C@H](C)[C@H](N)C(=O)N[C@@H](CC(C)C)C(=O)NCC(=O)N[C@@H](CCCCN)C(=O)N[C@H](C(=O)N[C@@H](Cc1c[nH]c2ccccc12)C(=O)N[C@@H](CCC(=O)O)C(=O)NCC(=O)N[C@H](C(=O)N[C@@H](CCCCN)C(=O)N[C@@H](CO)C(=O)N[C@@H](CC(C)C)C(=O)N[C@@H](Cc1ccccc1)C(N)=O)[C@@H](C)CC)[C@@H](C)CC [ILGKIWEGIKSLF]",
    "MIC (µM)": 66.5
  }
]

Now for the compound whose MIC we want.
GET /value?item= CC(C)C[C@H](NC(=O)[C@H](CC(C)C)NC(=O)[C@H](CCCCN)NC(=O)[C@H](CCCCN)NC(=O)[C@H](CC(C)C)NC(=O)[C@@H](NC(=O)[C@H](CCCCN)NC(=O)[C@H](CC(C)C)NC(=O)[C@@H](N)Cc1ccccc1)C(C)C)C(N)=O [FLKVLKKLL] &field=MIC returns 7.26

----------
# System: Enterococcus faecium
measurement-name: MIC (µM)
Just the number please, in µM, no unit attached.

The compound "CC[C@H](C)[C@H](NC(=O)[C@@H](NC(=O)[C@H](CCCN=C(N)N)NC(=O)[C@H](C)NC(=O)[C@H](CC(C)C)NC(=O)[C@H](CCCCN)NC(=O)[C@H](CCCN=C(N)N)NC(=O)[C@H](C)NC(=O)[C@H](CC(C)C)NC(=O)[C@H](CCCN=C(N)N)NC(=O)CNC(=O)[C@H](Cc1ccccc1)NC(=O)[C@H](CCCCN)NC(=O)[C@H](CO)NC(=O)[C@H](CC(C)C)NC(=O)[C@H](CC(C)C)NC(=O)CN)C(C)C)C(=O)N1CCC[C@H]1C(=O)N[C@@H](CCCCN)C(=O)N[C@H](C(N)=O)C(C)C" , tested on Enterococcus faecium, showed MIC of 1.41

----------
# Tested on: Salmonella enterica subsp. enterica serovar Enteritidis ATCC 13076
# assay-text: ≥ marks a high value that may be exact or a test limit, other limits are often not marked, values filed in µg/mL are converted to µM
measurement-name: MIC (µM)
Just the number please, in µM, no unit attached.

[
  {
    "compound-structure": "CC[C@H](C)[C@H](NC(=O)[C@H](CCCCN)NC(=O)[C@H](CCCN=C(N)N)NC(=O)[C@H](CC(C)C)NC(=O)[C@H](Cc1ccccc1)NC(=O)[C@H](CCCN=C(N)N)NC(=O)CNC(=O)[C@H](Cc1ccccc1)NC(=O)[C@H](CCCN=C(N)N)NC(=O)CNC(=O)[C@H](CCCN=C(N)N)NC(=O)[C@H](CCC(N)=O)NC(=O)[C@@H](NC(=O)[C@@H](N)CC(C)C)C(C)C)C(=O)N[C@@H](CCCN=C(N)N)C(=O)N[C@@H](CCCN=C(N)N)C(=O)N[C@@H](Cc1ccccc1)C(=O)N[C@@H](CCCN=C(N)N)C(=O)O",
    "unit-symbol": "µM",
    "MIC": 2
  },
  {
    "compound-structure": "CC[C@H](C)[C@H](N)C(=O)N[C@@H](CC(N)=O)C(=O)N[C@@H](CC(C)C)C(=O)N[C@@H](CCCCN)C(=O)N[C@@H](C)C(=O)N[C@H](C(=O)N[C@@H](C)C(=O)N[C@@H](C)C(=O)N[C@@H](CC(C)C)C(=O)N[C@@H](C)C(=O)N[C@@H](CCCCN)C(=O)N[C@@H](CCCCN)C(=O)N[C@@H](CC(C)C)C(=O)N[C@@H](Cc1ccccc1)C(N)=O)[C@@H](C)CC",
    "unit-symbol": "µM",
    "MIC": 4
  }
]

GET /value?item= "CC[C@H](C)[C@H](NC(=O)CNC(=O)[C@H](CCCCN)NC(=O)[C@H](CCCCN)NC(=O)[C@H](CCC(N)=O)NC(=O)[C@H](CC(C)C)NC(=O)[C@H](CCCN=C(N)N)NC(=O)[C@H](CC(C)C)NC(=O)[C@H](CC(C)C)NC(=O)[C@H](CCCN=C(N)N)NC(=O)[C@H](CCCN=C(N)N)NC(=O)[C@H](CC(C)C)NC(=O)[C@H](CC(C)C)NC(=O)[C@H](CCCN=C(N)N)NC(=O)[C@H](CCSC)NC(=O)[C@H](C)NC(=O)[C@H](CCCCN)NC(=O)[C@@H]1CCCN1C(=O)[C@H](C)N)C(=O)O" &field=MIC returns 0.442

----------
# Tested on: Staphylococcus aureus ATCC 25923
measurement-name: MIC (µM)
Just the number please, in µM, no unit attached.

The compound "CC[C@H](C)[C@H](NC(=O)[C@H](C)NC(=O)[C@H](CCCCN)NC(=O)[C@H](C)NC(=O)[C@@H](NC(=O)[C@H](C)NC(=O)[C@H](CC(C)C)NC(=O)[C@H](CC(C)C)NC(=O)[C@H](C)NC(=O)[C@H](CCCCN)NC(=O)[C@H](CC(C)C)NC(=O)[C@H](CC(N)=O)NC(=O)[C@@H](N)CC(C)C)C(C)C)C(=O)N[C@@H](CC(C)C)C(N)=O" , tested on Staphylococcus aureus ATCC 25923, showed MIC of 4
